Provenance of the data: patent US10092537B2

target.or.system: human PAI-1 (Homo sapiens)
Sequence (P05121 24-402): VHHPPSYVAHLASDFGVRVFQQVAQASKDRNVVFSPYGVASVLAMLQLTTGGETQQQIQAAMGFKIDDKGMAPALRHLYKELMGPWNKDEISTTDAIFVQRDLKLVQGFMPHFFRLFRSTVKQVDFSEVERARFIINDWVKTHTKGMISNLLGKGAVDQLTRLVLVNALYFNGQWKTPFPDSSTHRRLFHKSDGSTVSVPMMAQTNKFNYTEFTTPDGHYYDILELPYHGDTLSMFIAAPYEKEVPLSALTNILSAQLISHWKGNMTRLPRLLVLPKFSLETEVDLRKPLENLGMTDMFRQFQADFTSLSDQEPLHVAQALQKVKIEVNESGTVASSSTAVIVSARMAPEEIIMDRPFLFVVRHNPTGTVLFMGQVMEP
assay.info: Measurement of PAI-1 inhibitory activity of compound group 1 (t-PA, Spectrozyme t-PA chromogenic substrate)
run.parameters: read-out: PAI-1 activity %
quantity.measured: activity at 2.5 µM
Number first, unit second.

O=C(CNC(c1ccccc1)c1ccccc1)Nc1ccc(Cl)cc1C(=O)O = 82.2%
O=C(Nc1ccc(Cl)cc1C(=O)O)C1=CC2(CCCCC2)CCC1 = 97%
O=C(Nc1ccc(Cl)cc1C(=O)[O-])c1cccc(-c2cncc3ccccc23)c1.[Na+] = 74.3%
O=C(COc1ccc(C2CCCCC2)cc1)Nc1ccc(Cl)cc1C(=O)O [Known compound (3), reference compound] = 36.3%
O=C(O)c1cc(Cl)ccc1NC(=O)c1cc2cc(-c3ccccc3)ccc2n1CCCO = 25%

Hello, I would appreciate it if you could give activity at 2.5 µM for each entry below.
1. O=C(Nc1ccc(Cl)cc1C(=O)[O-])c1cccc(-c2ccc3ncccc3c2)c1.[Na+]
2. Cc1ccc(-c2ccc(F)cc2)cc1NCC(=O)Nc1ccc(Cl)cc1C(=O)O
3. O=C(O)c1cc(Cl)ccc1NC(=O)C(c1ccccc1)c1ccccc1 [Known compound (6), reference compound]

["71.7%", "31.1%", "85%"]
